# testDetails: qHTS assay to identify small molecule agonists of the peroxisome proliferator-activated receptor delta (PPARd) signaling pathway - cell viability counter screen (AID 743211); also: nearly all actives have a fitted effect of over 55% in size
# measurementParameters: PPARd-bla HEK293H viability, CellTiter-Glo luminescence, 17 h; series mostly up to 62.6 µM
Records with an inconclusive call do not appear. Activity calls are given as the source filed them. Calls follow the shape of the dose curve; as a rule, active = well fitted cell-killing curve with a large enough effect in the repeat runs; inconclusive = weak or mixed curves; inactive = no such curve, though single readings can be large or run the other way.
Respond with a class label; see 1 (active), 0 (inactive)

Worked set:
Nc1c2c(nc3ccccc13)CCCC2 ... 0
CCCc1cc(=O)[nH]c(=S)[nH]1 ... 0
Oc1ccccc1 ... 0
Nc1ccc2c(c1)CN1C(=O)c3ccccc3C1=N2 ... 0

Prompt: Dear all, I need the recorded test outcome for NC1CCCCC1 , thank you.
Completion: 0

Prompt: Which outcome was entered for the compound Cc1c(C(=O)O)c(O)cc2c1C(=O)c1c(O)c([C@@H]3O[C@H](CO)[C@@H](O)[C@H](O)[C@H]3O)c(O)c(O)c1C2=O in this test?
Completion: 0

Prompt: Hey, what did the test say about CN(C)CCOC(c1ccccc1)c1ccccc1 ?
Completion: 0

Prompt: Answer briefly: the call reported for Cc1cccc(C)c1 in this assay.
Completion: 0

Prompt: Returns: the outcome recorded for Nc1ccc(S(N)(=O)=O)cc1 in this assay.
Completion: 0

Prompt: Name the outcome recorded for O=C(O)c1ccccc1 in the assay.
Completion: 0

Prompt: Give the logged outcome of this assay for the following compound: CCCC[P+](CCCC)(CCCC)CCCC
Completion: 0

----------
# testDetails: A CellTox Green Cytotoxicity Assay to monitor cytotoxicity in HEK293 cells - 40 hour (AID 1224871); also: nearly all actives have a fitted effect of over 45% in size
# measurementParameters: CellTox Green fluorescence; series mostly up to 76.8 µM
Records with an inconclusive call do not appear. Active and inactive are the calls of the source. The call rests on the fitted dose curve; in most records, active means well fitted activation curve with a large enough effect in the repeat runs; inconclusive means weak or mixed curves; inactive means flat fitted curve, though single readings scatter.
Hi there, use one of these labels in your reply, thanks! True (active), False (inactive)

O=C1O[C@H]([C@@H](O)CO)C(O)=C1O ... False
Nc1c(N=Nc2ccc(-c3ccc(N=Nc4cc(S(=O)(=O)O)c5ccccc5c4N)cc3)cc2)cc(S(=O)(=O)O)c2ccccc12 ... False
O=C(O)CC(O)C(=O)O (configuration not stated) ... False

Prompt: Recorded call for Nc1ccc(S(N)(=O)=O)cc1 ?
Completion: False

Prompt: Test call, this compound: CNNCc1ccc(C(=O)NC(C)C)cc1
Completion: False

----------
# testDetails: Caspase-3/7 induction in HepG2 cells by small molecules, qHTS assay (AID 1346978); also: nearly all actives have a fitted effect of over 15% in size
# measurementParameters: HepG2 caspase-3/7 activation, Caspase-Glo luminescence, 17 h; series mostly up to 92.4 µM
Records with an inconclusive call do not appear. Calls of active or inactive are those of the source. Calls come from the whole dose curve; as a rule, active = well fitted activation curve with a large enough effect in the repeat runs; inconclusive = weak or mixed curves; inactive = flat fitted curve, though single readings scatter.
Log the outcome using a class from active, inactive

Examples with answers:
CCCCCCc1ccc(O)cc1O ... inactive
O=C1NS(=O)(=O)c2ccccc21 ... inactive
O=CC(=O)c1ccccc1 ... inactive
O=c1[nH]cnc2c1ncn2[C@H]1CC[C@@H](CO)O1 ... inactive
CN(N=O)C(=O)N[C@@H]1[C@@H](O)[C@H](O)[C@@H](CO)O[C@@H]1O ... inactive
COc1ccc2cc(S(=O)(=O)N[C@H](CC(=O)N[C@H](Cc3ccc(CN4[C@H](C)CCC[C@@H]4C)cc3)C(=O)N(C)C(C)C)c3ccc4c(c3)OCO4)ccc2c1 ... active

Prompt: Just curious, what result did CC1(C)S[C@@H]2[C@H](NC(=O)[C@H](N)c3ccccc3)C(=O)N2[C@H]1C(=O)O get here?
Completion: inactive

Prompt: Record request — test call for O=C(Nc1ncc([N+](=O)[O-])s1)c1cccs1
Completion: inactive

Prompt: Dear all, I need the recorded test outcome for CNNCc1ccc(C(=O)NC(C)C)cc1 , thank you.
Completion: inactive

----------
# testDetails: qHTS assay to identify small molecule antagonists of the estrogen related receptor signaling pathway with the pleiotropic PPARgamma coactivator (PGC) from Tox21 10K library (AID 1224841); also: actives are mostly falling curves and most rising ones were filed inactive; nearly all actives have a fitted effect of over 50% in size
# measurementParameters: PGC/ERR reporter cell line, ONE-Glo luciferase, 18 h; series mostly up to 92.4 µM
Results filed as inconclusive are left out. Activity calls are given as the source filed them. The rule behind the calls is not given here.
In this exercise, the only acceptable responses are active, inactive

Nc1c(N=Nc2ccc(-c3ccc(N=Nc4cc(S(=O)(=O)O)c5ccccc5c4N)cc3)cc2)cc(S(=O)(=O)O)c2ccccc12 ... active

Prompt: Tell me the recorded outcome of this test for CN(C)C(=O)Nc1ccc(Cl)c(Cl)c1 .
Completion: inactive

----------
# testDetails: qHTS RealTime-Glo MT Cell Viability Assay in HepG2 cells - 40 hour (AID 1224870); also: nearly all actives have a fitted effect of over 50% in size
# measurementParameters: RealTime-Glo luminescence; series mostly up to 76.8 µM
Inconclusive results are not listed. Active and inactive are the calls of the source. Calls follow the shape of the dose curve; as a rule, active = well fitted cell-killing curve with a large enough effect in the repeat runs; inconclusive = weak or mixed curves, or effect the other way; inactive = flat fitted curve, though single readings scatter.
// classify into True for active, False for inactive

Record excerpt, results attached:
C/C=C/C=C/C(=O)O ... False
Cn1c(=O)c2c(ncn2C)n(C)c1=O ... False
CCCc1cc(=O)[nH]c(=S)[nH]1 ... False
COc1ccc(C(Cl)=C(c2ccc(OC)cc2)c2ccc(OC)cc2)cc1 ... False
CC/C(=C(\c1ccccc1)c1ccc(OCCN(C)C)cc1)c1ccccc1 ... True
NC(=O)c1cccnc1 ... False
O=C1NS(=O)(=O)c2ccccc21 ... False
COc1ccc2cc(S(=O)(=O)N[C@H](CC(=O)N[C@H](Cc3ccc(CN4[C@H](C)CCC[C@@H]4C)cc3)C(=O)N(C)C(C)C)c3ccc4c(c3)OCO4)ccc2c1 ... True
CC(C)c1c(C(=O)Nc2ccccc2)c(-c2ccccc2)c(-c2ccc(F)cc2)n1CC[C@@H](O)C[C@@H](O)CC(=O)O ... False
CC(=O)CCC(=O)O ... False

Shift focus to the following entry.
Prompt: Tell me the assay call for O=C1O[C@H]([C@@H](O)CO)C(O)=C1O please.
Completion: False

----------
# testDetails: A CellTox Green Cytotoxicity Assay to monitor cytotoxicity in HepG2 cells - 40 hour (AID 1224879); also: nearly all actives have a fitted effect of over 40% in size
# measurementParameters: CellTox Green fluorescence; series mostly up to 76.8 µM
Results filed as inconclusive are left out. The source made the active and inactive calls. The call rests on the fitted dose curve; in most records, active means well fitted activation curve with a large enough effect in the repeat runs; inconclusive means weak or mixed curves; inactive means flat fitted curve, though single readings scatter.
Parameter call: string, one of 1 (yes) (active), 0 (no) (inactive)

Prompt: Recorded test call requested for O=C(O)CC(O)C(=O)O (configuration not stated)
Completion: 0 (no)

Prompt: State the result this test recorded for NC1CCCCC1 .
Completion: 0 (no)

Prompt: Query: recorded result category for NS(=O)(=O)O in this test
Completion: 0 (no)

Prompt: // return assay outcome for Cc1ncc([N+](=O)[O-])n1C
Completion: 0 (no)

Prompt: Just curious, what result did Nc1ccc(S(N)(=O)=O)cc1 get here?
Completion: 0 (no)

Prompt: GET /call?item= Cc1c(C(=O)O)c(O)cc2c1C(=O)c1c(O)c([C@@H]3O[C@H](CO)[C@@H](O)[C@H](O)[C@H]3O)c(O)c(O)c1C2=O returns the recorded outcome of this test.
Completion: 0 (no)

----------
# testDetails: qHTS assay to identify small molecule antagonists of the peroxisome proliferator-activated receptor delta (PPARd) signaling pathway - cell viability counter screen (AID 743213); also: nearly all actives have a fitted effect of over 50% in size
# measurementParameters: PPARd-bla HEK293H viability, CellTiter-Glo luminescence, 17 h; series mostly up to 62 µM
Records with an inconclusive call do not appear. Active and inactive are the calls of the source. The call rests on the fitted dose curve; in most records, active means well fitted cell-killing curve with a large enough effect in the repeat runs; inconclusive means weak or mixed curves; inactive means no such curve, though single readings can be large or run the other way.
Choose one outcome from this list and give only that: label 1 for active, label 0 for inactive

Prompt: Per the records of this test, what outcome belongs to CC(C)C(=O)Nc1ccc([N+](=O)[O-])c(C(F)(F)F)c1 ?
Completion: label 0

----------
# testDetails: A CellTox Green Cytotoxicity Assay to monitor cytotoxicity in HEK293 cells - 32 hour (AID 1224881); also: nearly all actives have a fitted effect of over 40% in size
# measurementParameters: CellTox Green fluorescence; series mostly up to 76.8 µM
Records with an inconclusive call do not appear. Active and inactive are the calls of the source. Calls follow the shape of the dose curve; as a rule, active = well fitted activation curve with a large enough effect in the repeat runs; inconclusive = weak or mixed curves; inactive = flat fitted curve, though single readings scatter.
Reply using exactly one outcome from 1.0 = active, 0.0 = inactive

C1CCC(C(CC2CCCCN2)C2CCCCC2)CC1 (centres undefined) ... 1.0
O=C(Nc1ncc([N+](=O)[O-])s1)c1cccs1 ... 0.0

Prompt: Query: recorded result category for CN(C)CCOC(C)(c1ccccc1)c1ccccn1 (centres undefined) in this test
Completion: 0.0

Prompt: Which outcome was assigned to Cn1c(=O)c2c(ncn2C)n(C)c1=O in this test?
Completion: 0.0

Prompt: GET /call?item= F[B-](F)(F)F returns the recorded outcome of this test.
Completion: 0.0

Prompt: Answer briefly: the call reported for CCCCOC(=O)c1ccc(O)cc1 in this assay.
Completion: 0.0

----------
# testDetails: qHTS assay to identify small molecule antagonists of the estrogen receptor alpha (ER-alpha) signaling pathway using the BG1 cell line - cell viability counter screen (AID 743081);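 also: compound given together with 17beta-estradiol as the ER stimulus; nearly all actives have a fitted effect of over 45% in size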
# measurementParameters: BG1Luc4E2 viability, CellTiter-Fluor, 22 h; series mostly up to 70.3 µM
Inconclusive results are not listed. The source made the active and inactive calls. Calls follow the shape of the dose curve; as a rule, active = well fitted cell-killing curve with a large enough effect in the repeat runs; inconclusive = weak or mixed curves, or effect the other way; inactive = flat fitted curve, though single readings scatter.
Permitted responses: 1 = active, 0 = inactive

Here are 3 compounds together with their reported answers.
Cc1ccc(S(=O)(=O)O)cc1 ... 0
O=C1c2c(O)cccc2Cc2cccc(O)c21 ... 0
CCCC[P+](CCCC)(CCCC)CCCC ... 0

Prompt: Which result was noted for this compound in the test: CN1[C@@H]2CC(OC(=O)[C@H](CO)c3ccccc3)C[C@H]1[C@@H]1O[C@@H]12 (some centres undefined)
Completion: 0

Prompt: Please state the recorded outcome for this compound: C1=CC2C3C=CC(C3)C2C1 (centres undefined)
Completion: 0

Prompt: Please let me know the test result on file for CC(C)c1c(C(=O)Nc2ccccc2)c(-c2ccccc2)c(-c2ccc(F)cc2)n1CC[C@@H](O)C[C@@H](O)CC(=O)O .
Completion: 0
